Provenance of the data: the OligoGym collection

target.under.test: COL23A1; also: reference of the scale not given here
assay.info: pooled miR-30 sensor sort-seq; sequence = guide strand
run.conditions: shRNA
metric.name: sensor-assay potency score (higher = more potent)
Please give the numeric answer without any surrounding text.

Solved cases (5 shown):
| macromolecule.sequence | target.under.test | recorded.result |
| --- | --- | --- |
| TAGAGCTAGACCCTCGTGGGGG | COL23A1 | -0.316 |
| TAGTCCGTCCAACTTCTCCCGC | COL23A1 | -1.02 |
| TCTACCTTCATCTCCTTCCTGG | COL23A1 | 0.0937 |
| TTCTCTCCACGCTCGCTCCGAT | COL23A1 | -1.13 |
| TTGTCCTTGGTCTCCCCGGGGG | COL23A1 | -1.12 |

Req: Return sensor-assay potency score (higher = more potent) (reported value) for this sequence: `TCATAGTCGATCACCACTGTGT`
Resp: 0.319

Req: Return sensor-assay potency score (higher = more potent) (reported value) for this sequence: `TAGTCGATCACCACTGTGTCTC`
Resp: -0.624
